Cited source for all entries: ChEMBL document CHEMBL1811881

target: 17-beta-hydroxysteroid dehydrogenase type 3 (Homo sapiens); assay: Inhibition of 17Beta-HSD3 expressed in homogenized HEK293 cells assessed as transformation of [14C]-4-androstene-3,17-dione into [14C]-testosterone in presence of NADPH at 0.01 uM; format: cell-based
Returns one of True or False; True when inhibition is >= 20%.

I'd appreciate it if you could say whether C[C@]12CC[C@](O)(CN3CCN(c4ccccc4)CC3)C[C@@H]1CC[C@@H]1[C@@H]2CC[C@]2(C)C(=O)CC[C@@H]12 has inhibition at least equal to 20%. False

Determine whether this molecule has inhibition no lower than 20%: C[C@@H]1CN(C(=O)c2cccc(C(F)(F)F)c2)[C@@H](C)CN1C[C@@]1(O)CC[C@@]2(C)[C@@H](CC[C@@H]3[C@@H]2CC[C@]2(C)C(=O)CC[C@@H]32)C1 True

// inclusive: inhibition at least 20%? input: COc1cccc(CN2CCN(C[C@@]3(O)CC[C@@]4(C)[C@@H](CC[C@@H]5[C@@H]4CC[C@]4(C)C(=O)CC[C@@H]54)C3)CC2)c1 True

# check: inhibition of C[C@]12CC[C@@]3(C[C@@H]1CC[C@@H]1[C@@H]2CC[C@]2(C)C(=O)CC[C@@H]12)CN(Cc1cccc(C(F)(F)F)c1)C(=O)O3 is greater than or equal to 20% False

Textbook exercise: given the entry CCCN(CCC)CCN1C[C@]2(CC[C@@]3(C)[C@@H](CC[C@@H]4[C@@H]3CC[C@]3(C)C(=O)CC[C@@H]43)C2)OC1=O , state whether its inhibition is greater than or equal to 20%. False

Does the reported inhibition for C[C@]12CC[C@@]3(C[C@@H]1CC[C@@H]1[C@@H]2CC[C@]2(C)C(=O)CC[C@@H]12)CN(Cc1ccccc1C(F)(F)F)C(=O)O3 fall at or above the 20% mark? False

Please indicate if the recorded inhibition for C[C@@H]1CN(Cc2ccc(C(F)(F)F)cc2)[C@@H](C)CN1C[C@@]1(O)CC[C@@]2(C)[C@@H](CC[C@@H]3[C@@H]2CC[C@]2(C)C(=O)CC[C@@H]32)C1 meets or exceeds 20%. False

Quick check: does Cc1ccc(CN2C[C@]3(CC[C@@]4(C)[C@@H](CC[C@@H]5[C@@H]4CC[C@]4(C)C(=O)C(C)(C)C[C@@H]54)C3)OC2=O)cc1 have inhibition greater than or equal to 20%? False

Kindly determine if inhibition recorded for C[C@@H]1CN(C(=O)c2ccc(C(F)(F)F)cc2)[C@@H](C)CN1C[C@@]1(O)CC[C@@]2(C)[C@@H](CC[C@@H]3[C@@H]2CC[C@]2(C)C(=O)CC[C@@H]32)C1 is above or exactly 20%. False

Quick check, inhibition >= 20%? C[C@]12CC[C@](O)(CN3CCN(Cc4cccc(Cl)c4)CC3)C[C@@H]1CC[C@@H]1[C@@H]2CC[C@]2(C)C(=O)CC[C@@H]12 True

Answer whether inhibition of C[C@@H]1CN(S(=O)(=O)c2ccccc2C(F)(F)F)[C@@H](C)CN1C[C@@]1(O)CC[C@@]2(C)[C@@H](CC[C@@H]3[C@@H]2CC[C@]2(C)C(=O)CC[C@@H]32)C1 is greater than or equal to 20%. True

Tell me whether inhibition is at least 20% here: C[C@]12CC[C@](O)(CN3CCN(C(=O)c4ccccc4)CC3)C[C@@H]1CC[C@@H]1[C@@H]2CC[C@]2(C)C(=O)CC[C@@H]12 False

----------
So I've got a bunch of compounds here, and I need their inhibition values.
target: 17-beta-hydroxysteroid dehydrogenase type 3 (Homo sapiens); test: Inhibition of 17Beta-HSD3 expressed in homogenized HEK293 cells assessed as transformation of [14C]-4-androstene-3,17-dione into [14C]-testosterone in presence of NADPH at 0.01 uM; assay type: cell-based
Returns: string containing the number followed by the unit.

The reported 17-beta-hydroxysteroid dehydrogenase type 3 (Homo sapiens) inhibition of C[C@@H]1CN(C(=O)C2CCCCC2)[C@@H](C)CN1C[C@@]1(O)CC[C@@]2(C)[C@@H](CC[C@@H]3[C@@H]2CC[C@]2(C)C(=O)CC[C@@H]32)C1 is 24%

Short answer on 17-beta-hydroxysteroid dehydrogenase type 3 (Homo sapiens) for C[C@]12CC[C@@]3(C[C@@H]1CC[C@@H]1[C@@H]2CC[C@]2(C)C(=O)CC[C@@H]12)CN(C1CCCCC1)C(=O)O3 , inhibition: 13%

Summary: C[C@]12CC[C@](O)(CN3CCN(C(=O)c4ccccc4C(F)(F)F)CC3)C[C@@H]1CC[C@@H]1[C@@H]2CC[C@]2(C)C(=O)CC[C@@H]12 , 17-beta-hydroxysteroid dehydrogenase type 3 (Homo sapiens), inhibition = 31%

The reported 17-beta-hydroxysteroid dehydrogenase type 3 (Homo sapiens) inhibition of Cc1ccc(CN2C[C@]3(CC[C@@]4(C)[C@@H](CC[C@@H]5[C@@H]4CC[C@]4(C)C(=O)CC[C@@H]54)C3)OC2=O)cc1 is 17%

Here C[C@]12CC[C@@]3(C[C@@H]1CC[C@@H]1[C@@H]2CC[C@]2(C)C(=O)CC[C@@H]12)CN(Cc1cc(C(F)(F)F)cc(C(F)(F)F)c1)C(=O)O3 was tested on 17-beta-hydroxysteroid dehydrogenase type 3 (Homo sapiens), and its inhibition came to 12%

Bench note, 17-beta-hydroxysteroid dehydrogenase type 3 (Homo sapiens): C[C@@H]1CN(S(=O)(=O)c2ccc(C(F)(F)F)cc2)[C@@H](C)CN1C[C@@]1(O)CC[C@@]2(C)[C@@H](CC[C@@H]3[C@@H]2CC[C@]2(C)C(=O)CC[C@@H]32)C1 , inhibition reads 79%

Query C[C@@H]1CN(C(=O)c2ccccc2)[C@@H](C)CN1C[C@@]1(O)CC[C@@]2(C)[C@@H](CC[C@@H]3[C@@H]2CC[C@]2(C)C(=O)CC[C@@H]32)C1 on 17-beta-hydroxysteroid dehydrogenase type 3 (Homo sapiens); inhibition returned: 24%

# value of inhibition, 17-beta-hydroxysteroid dehydrogenase type 3 (Homo sapiens), item C[C@]12CC[C@@]3(C[C@@H]1CC[C@@H]1[C@@H]2CC[C@]2(C)C(=O)CC[C@@H]12)CN(CCO)C(=O)O3 = 0%

Note to self: inhibition of C[C@]12CC[C@](O)(CN3CCN(S(=O)(=O)c4ccc(C(F)(F)F)cc4)CC3)C[C@@H]1CC[C@@H]1[C@@H]2CC[C@]2(C)C(=O)CC[C@@H]12 with 17-beta-hydroxysteroid dehydrogenase type 3 (Homo sapiens) was 21%

Lab entry: 17-beta-hydroxysteroid dehydrogenase type 3 (Homo sapiens) assay, compound C[C@]12CC[C@@]3(C[C@@H]1CC[C@@H]1[C@@H]2CC[C@]2(C)C(=O)CC[C@@H]12)CN(Cc1ccc(C(F)(F)F)cc1)C(=O)O3 , inhibition = 25%

# value of inhibition, 17-beta-hydroxysteroid dehydrogenase type 3 (Homo sapiens), item C[C@]12CC[C@](O)(CN3CCN(Cc4cc(C(F)(F)F)ccc4C(F)(F)F)CC3)C[C@@H]1CC[C@@H]1[C@@H]2CC[C@]2(C)C(=O)CC[C@@H]12 = 18%

COc1ccc(CN2C[C@]3(CC[C@@]4(C)[C@@H](CC[C@@H]5[C@@H]4CC[C@]4(C)C(=O)CC[C@@H]54)C3)OC2=O)cc1 on 17-beta-hydroxysteroid dehydrogenase type 3 (Homo sapiens) gives inhibition = 5%

17-beta-hydroxysteroid dehydrogenase type 3 (Homo sapiens) inhibition of C[C@]12CC[C@@]3(C[C@@H]1CC[C@@H]1[C@@H]2CC[C@]2(C)C(=O)CC[C@@H]12)CN(Cc1ccccc1)C(=O)O3 is 21%

----------
Molecular target: 17-beta-hydroxysteroid dehydrogenase type 3 (Homo sapiens, UniProt P37058)
Sequence (P37058 whole entry): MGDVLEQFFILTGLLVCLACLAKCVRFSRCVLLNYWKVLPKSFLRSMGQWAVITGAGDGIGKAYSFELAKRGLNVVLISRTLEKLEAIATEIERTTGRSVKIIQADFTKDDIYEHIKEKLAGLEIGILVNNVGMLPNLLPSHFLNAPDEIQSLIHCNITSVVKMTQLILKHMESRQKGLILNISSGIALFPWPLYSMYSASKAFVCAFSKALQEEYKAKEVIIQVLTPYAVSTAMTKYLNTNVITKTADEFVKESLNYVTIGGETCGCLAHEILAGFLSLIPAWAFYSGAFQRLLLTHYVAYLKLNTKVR
Assay: Inhibition of 17Beta-HSD3 expressed in intact HEK293 cells assessed as transformation of [14C]-4-androstene-3,17-dione into [14C]-testosterone in presence of NADPH after 1 hr incubation
Would you mind telling me the reported IC50 of each entry?
Write it as a number; the unit nM goes unstated.

I looked up C[C@]12CC[C@@]3(C[C@@H]1CC[C@@H]1[C@@H]2CC[C@]2(C)C(=O)CC[C@@H]12)CN(CCC(CN1CCOCC1)OC(=O)C1CCCCC1)C(=O)O3 (some centres not stated) and its IC50 for 17-beta-hydroxysteroid dehydrogenase type 3 (Homo sapiens, UniProt P37058) was 51

17-beta-hydroxysteroid dehydrogenase type 3 (Homo sapiens, UniProt P37058) assay, compound C[C@@H]1CN(S(=O)(=O)c2ccccc2C(F)(F)F)[C@@H](C)CN1C[C@@]1(O)CC[C@@]2(C)[C@@H](CC[C@@H]3[C@@H]2CC[C@]2(C)C(=O)CC[C@@H]32)C1 , recorded IC50 = 6
